# ASSAYED_SYSTEM: Nluc-H1R (Homo sapiens)
# Sequence (P35367 2-487 limits assumed): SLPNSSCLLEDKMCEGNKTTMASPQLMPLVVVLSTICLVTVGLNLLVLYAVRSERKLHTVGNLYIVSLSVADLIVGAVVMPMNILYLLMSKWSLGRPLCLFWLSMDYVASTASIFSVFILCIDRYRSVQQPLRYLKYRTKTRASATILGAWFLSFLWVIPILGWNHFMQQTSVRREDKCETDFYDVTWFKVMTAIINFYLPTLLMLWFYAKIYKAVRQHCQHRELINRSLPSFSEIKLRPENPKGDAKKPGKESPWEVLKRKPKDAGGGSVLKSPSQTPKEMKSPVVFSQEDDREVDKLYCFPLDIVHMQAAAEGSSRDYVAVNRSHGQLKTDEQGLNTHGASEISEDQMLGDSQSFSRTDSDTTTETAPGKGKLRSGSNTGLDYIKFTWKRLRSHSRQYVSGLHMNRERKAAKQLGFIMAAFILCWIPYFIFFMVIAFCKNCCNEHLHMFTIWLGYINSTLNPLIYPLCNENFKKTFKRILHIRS
# ASSAY_EXPLANATION: NanoBRET association kinetics in whole HEK293T cells
# Assay type: binding
# CONDITION_DETAILS: read-out: NanoBRET kinetics kon, whole HEK293T cells expressing Nluc-H1R, room temperature; non-specific 10 μM doxepin
PROPERTY_NAME: kon
Param answer (str): number followed by unit.

C[C@H](NC(=O)CCN1CCC(Oc2ccccc2Cc2ccccc2)CC1)C(=O)N[C@@H](C)C(=O)N[C@@H](C)C(=O)NCCNC(=O)CCCCCNC(=O)COc1ccc(/C=C/C2=[N+]3C(=Cc4ccc(-c5cccs5)n4[B-]3(F)F)C=C2)cc1    26700 M⁻¹ s⁻¹

Prompt: I would be grateful if you could share the reported kon for CC(O)[C@H](NC(=O)[C@H](C)NC(=O)[C@H](CC(N)=O)NC(=O)CCN1CCC(Oc2ccccc2Cc2ccccc2)CC1)C(=O)NCCNC(=O)CCCCCNC(=O)COc1ccc(/C=C/C2=[N+]3C(=Cc4ccc(-c5cccs5)n4[B-]3(F)F)C=C2)cc1 (some centres unmarked) .
Response: 43300 M⁻¹ s⁻¹
